experiment: Solvent partition coefficient into water, with and without 3-FTHF co-solvent (Examples 45-56); assay type: physicochemical; details: no co-solvent; H2O:(S + CS) 1:1
This section presents compounds with their documented Solvent Partition Coefficient values.
Kindly provide the number alone.

> print(dat)
                                   compound                  quantity.name  readout.number
1  Cc1ccc(C)cc1 [p-Xylene, p-xylene, reference compound]  Solvent Partition Coefficient         0.00015
2  CC(C)COC(=O)C(C)C [IBIB, isobutyl isobutyrate, reference compound]  Solvent Partition Coefficient         0.00116
3  COC(=O)c1ccccc1C(=O)OC [DMP, dimethyl phthalate]  Solvent Partition Coefficient         0.00731

We now examine a further compound.
QUERY: What does the data say about its Solvent Partition Coefficient? Entry: CCCCCCCCCCO [1-Decanol, 1-decanol, reference compound]
RESULT: 0.00028

----------
format: physicochemical; conditions: 3-FTHF:Solvent:Water 3:3:4 by volume; 24.1-25.7 °C
quantity_name: KSolvent partition coefficient
Kindly provide the number alone.

The examples below pair each entry with its known result.
> print(dat)
                                   compound  readout.number
1  CCCCCCCCCCO [1-Decanol, 1-decanol, reference compound]         0.01695
2  CC(C)c1cccc(C(C)C)c1 [DIPB, 1,3-diisopropylbenzene, reference compound]         0.01904

QUERY: What does the data say about its KSolvent partition coefficient? Entry: CC(C)COC(=O)C(C)C [IBIB, isobutyl isobutyrate, reference compound]
RESULT: 0.00772

QUERY: How about Cc1ccc(C)cc1 [p-Xylene, p-xylene, reference compound] ?
RESULT: 0.0074

Source of measurements: patent US5945549A
